Reported activity coefficient is given for each of the following molecules.
assay-protocol: activity coefficient (dimensionless); of the first substance listed, at infinite dilution; xn = mol fraction of the nth substance listed
conditions-used: 368.15 K; 101.33 kPa; Liquid; Chromatography; x1 = 0
Number, no unit, nothing else.

Worked cases, activity coefficient given:
* CCC(C)(C)C [2,2-dimethylbutane] + CCCC[P+](CCCC)(CCCC)CCCC.O=S(=O)([N-]S(=O)(=O)C(F)(F)F)C(F)(F)F | 3.98
* CC(C)OC(C)C [diisopropyl ether] + CCCC[P+](CCCC)(CCCC)CCCC.O=S(=O)([N-]S(=O)(=O)C(F)(F)F)C(F)(F)F | 2.94
* CCCCO [butan-1-ol] + CCCC[P+](CCCC)(CCCC)CCCC.O=S(=O)([N-]S(=O)(=O)C(F)(F)F)C(F)(F)F | 1.61
* CCCC(=O)OC [methyl butanoate] + CCCC[P+](CCCC)(CCCC)CCCC.O=S(=O)([N-]S(=O)(=O)C(F)(F)F)C(F)(F)F | 0.989

Item CC(C)CO [2-methyl-1-propanol] + CCCC[P+](CCCC)(CCCC)CCCC.O=S(=O)([N-]S(=O)(=O)C(F)(F)F)C(F)(F)F has what recorded activity coefficient? 1.52

Item C1COCCO1 [1,4-dioxane] + CCCC[P+](CCCC)(CCCC)CCCC.O=S(=O)([N-]S(=O)(=O)C(F)(F)F)C(F)(F)F has what recorded activity coefficient? 0.825

Values were extracted from the NIST ThermoML archive (doi:10.1016/j.fluid.2018.07.028).
